A set of compounds tested on C. difficile (630, ATCC BAA-1382), with measured MIC:

O=c1c2nccn2ccn1Cc1ccc(F)cc1 [20c]; > 64 µg/mL
CC(c1ccc(F)cc1)n1ccn2cc([N+](=O)[O-])nc2c1=O (stereo not drawn) [17l]; > 64 µg/mL

Query: Using known records, supply MIC for Cc1cn2cc([N+](=O)[O-])nc2c(OCc2ccc(OC(F)(F)F)cc2)n1 [25g]
Reply: > 64 µg/mL

====

MIC by entry:
# Test system: M. tuberculosis (H37Rv)
# protocol: M. tuberculosis H37Rv resazurin reduction microplate MIC assay, normoxic conditions
# Type: cell-based
# assay-setup: Mycobacterium tuberculosis, normoxia, read-out: antibacterial MIC M. tuberculosis normoxia

O=c1c2nccn2ccn1Cc1ccc(F)cc1 [20c]; > 32 µg/mL

Query: Using known records, supply MIC for NC(=O)c1ncc([N+](=O)[O-])[nH]1 [16a]
Reply: > 32 µg/mL

Query: Using known records, supply MIC for O=c1c2nccn2ccn1Cc1ccccc1 [20b, 7-Benzylimidazo[1,2-a]pyrazin-8(7H)-one]
Reply: > 32 µg/mL

====

# protocol: Kinetic solubility determination by LC-UV
# assay-setup: water, Solubility µM (H2O), 24 h, room temperature, 1% DMSO
solubility at 24 h by entry:

O=c1c2nc([N+](=O)[O-])cn2ccn1Cc1ccccc1OC(F)(F)F [17i]; < 5 µM
CC(c1ccc(F)cc1)n1ccn2cc([N+](=O)[O-])nc2c1=O (stereo not drawn) [17l]; < 10 µM

Now turn to the next compound.
Query: Using known records, supply solubility at 24 h for O=[N+]([O-])c1cn2cc(-c3ccccc3)nc(OCCO)c2n1 [24e]
Reply: < 5 µM

====

pIC50 by entry:
# Tested on: L. donovani MHOM/IN/80/DD8 (ATCC50212)
# protocol: L. donovani DD8 intracellular (THP-1) amastigote assay
# Format: cell-based
# assay-setup: Leishmania donovani, read-out: antiparasitic IC50 L. donovani
pIC50: −log10 of the molar value.

CC(=O)OCCn1ccn2cc([N+](=O)[O-])nc2c1=O [17o]; < 4.10

Query: Using known records, supply pIC50 for Cc1cn2cc([N+](=O)[O-])nc2c(=O)n1Cc1ccc(OC(F)(F)F)cc1 [25f]
Reply: < 4.10

Query: Using known records, supply pIC50 for Cc1cccc(Cn2ccn3cc([N+](=O)[O-])nc3c2=O)c1 [17g]
Reply: < 4.70

Query: Using known records, supply pIC50 for CC(=O)OCCn1c(C)cn2cc([N+](=O)[O-])nc2c1=O [25b]
Reply: < 4.10

====

# protocol: Kinetic solubility determination by LC-UV
# assay-setup: PBS, pH 7.4, Solubility µM (PBS), PBS pH 7.4, 24 h, room temperature, 1% DMSO
observation-type: solubility at 24 h

Record excerpt, results attached:
O=c1c2nc([N+](=O)[O-])cn2ccn1Cc1ccccc1 [17b]; < 5 µM
CC(=O)OCCn1c(C)cn2cc([N+](=O)[O-])nc2c1=O [25b]; > 200 µM
O=c1c2nc([N+](=O)[O-])cn2ccn1CCc1ccc(OC(F)(F)F)cc1 [17m]; < 5 µM

Now turn to the next compound.
Query: Using known records, supply solubility at 24 h for Cc1ccc(COc2nc(C)cn3cc([N+](=O)[O-])nc23)cc1 [25i]
Reply: < 5 µM
